These entries and their values trace back to patent US20200262813A1.

- System Name: Recombinant PRC2 (EZH2-Y641F) (Homo sapiens, UniProt Q15910, Y641F)
- Sequence (Q15910 whole entry Y641F): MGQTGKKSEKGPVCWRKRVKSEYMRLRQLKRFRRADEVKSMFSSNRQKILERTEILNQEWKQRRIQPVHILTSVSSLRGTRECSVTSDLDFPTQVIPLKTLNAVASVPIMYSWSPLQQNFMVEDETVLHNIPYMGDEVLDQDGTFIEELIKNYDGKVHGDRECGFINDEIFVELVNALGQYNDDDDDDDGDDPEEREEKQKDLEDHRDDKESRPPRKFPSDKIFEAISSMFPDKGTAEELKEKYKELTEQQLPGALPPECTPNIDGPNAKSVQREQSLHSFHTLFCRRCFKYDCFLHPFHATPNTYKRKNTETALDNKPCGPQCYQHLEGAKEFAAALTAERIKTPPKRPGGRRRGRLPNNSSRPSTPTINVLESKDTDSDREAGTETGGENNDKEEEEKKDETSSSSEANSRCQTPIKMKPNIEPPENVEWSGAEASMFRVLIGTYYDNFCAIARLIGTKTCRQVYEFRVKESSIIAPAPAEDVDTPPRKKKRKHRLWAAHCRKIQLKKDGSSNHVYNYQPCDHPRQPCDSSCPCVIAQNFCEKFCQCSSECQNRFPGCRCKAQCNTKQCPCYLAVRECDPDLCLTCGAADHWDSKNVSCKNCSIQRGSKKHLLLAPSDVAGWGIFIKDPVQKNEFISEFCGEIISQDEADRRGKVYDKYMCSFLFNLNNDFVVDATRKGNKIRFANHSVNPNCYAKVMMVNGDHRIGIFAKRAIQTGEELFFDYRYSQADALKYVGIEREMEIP
- Sequence (O75530 whole entry partner): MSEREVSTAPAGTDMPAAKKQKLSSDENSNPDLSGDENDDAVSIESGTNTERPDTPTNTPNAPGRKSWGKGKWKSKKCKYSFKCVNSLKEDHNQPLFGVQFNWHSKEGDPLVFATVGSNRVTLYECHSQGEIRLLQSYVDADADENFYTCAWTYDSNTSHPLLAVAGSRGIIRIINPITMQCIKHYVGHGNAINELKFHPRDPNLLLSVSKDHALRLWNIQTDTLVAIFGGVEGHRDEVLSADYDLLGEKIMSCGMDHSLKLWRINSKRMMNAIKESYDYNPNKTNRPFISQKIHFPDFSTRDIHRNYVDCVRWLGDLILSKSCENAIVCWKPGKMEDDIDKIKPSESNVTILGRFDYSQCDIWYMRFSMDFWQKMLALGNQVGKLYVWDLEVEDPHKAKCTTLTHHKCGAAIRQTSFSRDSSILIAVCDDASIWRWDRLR
- Sequence (Q15022 whole entry partner): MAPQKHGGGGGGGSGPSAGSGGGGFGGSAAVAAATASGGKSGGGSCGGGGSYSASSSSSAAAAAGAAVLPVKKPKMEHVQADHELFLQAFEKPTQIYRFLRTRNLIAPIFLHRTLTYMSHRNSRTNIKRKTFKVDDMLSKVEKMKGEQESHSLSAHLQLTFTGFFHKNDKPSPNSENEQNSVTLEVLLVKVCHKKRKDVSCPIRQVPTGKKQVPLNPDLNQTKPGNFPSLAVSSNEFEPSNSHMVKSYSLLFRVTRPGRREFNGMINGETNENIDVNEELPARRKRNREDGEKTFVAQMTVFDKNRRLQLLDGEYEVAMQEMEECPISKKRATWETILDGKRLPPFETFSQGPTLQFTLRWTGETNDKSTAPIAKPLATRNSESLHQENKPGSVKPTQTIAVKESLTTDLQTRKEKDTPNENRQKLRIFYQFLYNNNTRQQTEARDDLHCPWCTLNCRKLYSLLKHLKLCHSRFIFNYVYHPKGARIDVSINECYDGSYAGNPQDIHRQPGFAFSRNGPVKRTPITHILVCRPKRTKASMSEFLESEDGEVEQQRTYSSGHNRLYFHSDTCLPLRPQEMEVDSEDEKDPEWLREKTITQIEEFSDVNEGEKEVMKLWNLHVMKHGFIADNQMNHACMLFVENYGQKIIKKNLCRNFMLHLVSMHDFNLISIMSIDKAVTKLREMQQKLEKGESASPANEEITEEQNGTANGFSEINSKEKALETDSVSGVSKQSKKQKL
- Sequence (Q09028 whole entry partner): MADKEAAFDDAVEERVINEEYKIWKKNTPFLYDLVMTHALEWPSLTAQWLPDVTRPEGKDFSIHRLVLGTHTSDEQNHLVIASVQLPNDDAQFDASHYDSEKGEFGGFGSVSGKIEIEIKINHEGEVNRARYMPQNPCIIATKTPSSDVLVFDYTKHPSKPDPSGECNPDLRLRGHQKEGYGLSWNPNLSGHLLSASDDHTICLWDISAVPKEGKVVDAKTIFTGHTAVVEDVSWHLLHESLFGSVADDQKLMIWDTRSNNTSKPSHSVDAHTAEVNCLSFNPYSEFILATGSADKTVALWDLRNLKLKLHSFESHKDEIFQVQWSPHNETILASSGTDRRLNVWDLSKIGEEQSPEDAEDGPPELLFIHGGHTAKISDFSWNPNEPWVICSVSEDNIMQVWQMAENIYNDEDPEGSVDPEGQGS
- Sequence (Q6ZN18 whole entry partner): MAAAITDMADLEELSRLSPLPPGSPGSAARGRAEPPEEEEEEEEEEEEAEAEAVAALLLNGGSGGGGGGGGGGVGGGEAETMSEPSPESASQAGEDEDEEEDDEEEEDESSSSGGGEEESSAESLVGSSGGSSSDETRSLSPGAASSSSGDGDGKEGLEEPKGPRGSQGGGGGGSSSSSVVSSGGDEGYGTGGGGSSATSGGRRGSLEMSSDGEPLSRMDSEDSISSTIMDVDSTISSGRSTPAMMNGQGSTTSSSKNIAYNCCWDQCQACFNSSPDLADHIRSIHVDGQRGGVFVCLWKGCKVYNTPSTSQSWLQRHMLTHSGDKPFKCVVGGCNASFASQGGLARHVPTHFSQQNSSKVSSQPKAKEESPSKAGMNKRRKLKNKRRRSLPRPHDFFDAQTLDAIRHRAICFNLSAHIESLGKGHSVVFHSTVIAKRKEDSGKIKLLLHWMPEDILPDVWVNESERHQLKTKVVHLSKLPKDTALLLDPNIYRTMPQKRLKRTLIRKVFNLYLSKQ
- Procedure Summary: In vitro methyltransferase activity test (LANCE Ultra)
- Assay Context: EZH2 Y641F IC50, Recombinant PRC2 (EZH2-Y641F), LANCE Ultra detection, 3 hours reaction
pIC50: −log10 of the molar value.
Measure Name: pIC50

- Compound: "CCN(c1cc(-c2ccc(N3CCN(C)CC3)c(F)c2)cc2c(NCc3c(C)cc(C)[nH]c3=O)nccc12)C1CCC(N(C)C)CC1 (stereo not drawn)"
  pIC50: 7.59
- Compound: "CCN(c1cc(C(=O)NC2CCN(C)CC2)cc2c(NCc3c(C)cc(C)[nH]c3=O)nccc12)C1CCOCC1"
  pIC50: 7.48
- Compound: "CCN(c1cc(Br)cc2c(NCc3c(C)cc(C)[nH]c3=O)nccc12)C1CCC(N(C)C)CC1 (stereo not drawn)"
  pIC50: 7.04
- Compound: "CCN(c1cc(-c2ccc(N3CCN(C)CC3)nc2)cc2c(NCc3c(C)cc(C)[nH]c3=O)nccc12)C1CCN(CCOC)CC1"
  pIC50: 7.28
- Compound: "CCN(c1cc(-c2ccc(N3CCOCC3)nc2)cc2c(NCc3c(C)cc(C)[nH]c3=O)nccc12)C1CCOCC1"
  pIC50: 6.47

A. CCN(c1cc(-c2ccc(C(=O)Nc3ccccn3)cc2)cc2c(NCc3c(C)cc(C)[nH]c3=O)nccc12)C1CCC(N(C)C)CC1 (stereo not drawn)
B. CCN(CCN(C)C)c1cc(-c2ccc(N3CCN(C)CC3)nc2)cc2c(NCc3c(C)cc(C)[nH]c3=O)nccc12
// which entry reports the smaller pIC50, A or B ? Label of pick, please. B

====

- System Name: Recombinant PRC2 (EZH2-Y641F) (Homo sapiens, UniProt Q15910, Y641F)
- Procedure Summary: In vitro methyltransferase activity test (LANCE Ultra)
- Assay Context: EZH2 Y641F IC50, Recombinant PRC2 (EZH2-Y641F), LANCE Ultra detection, 3 hours reaction
pIC50: −log10 of the molar value.
Measure Name: pIC50

See these solved cases before continuing.
- Compound: "CCN(c1cc(-c2ccc(CN(C)C)nc2)cc2c(NCc3c(C)cc(C)[nH]c3=O)nccc12)C1CCC(N(C)C)CC1 (centres unmarked) [Compound Z-128]"
  pIC50: 6.65
- Compound: "CCN(c1cc(C#CCN2CCOCC2)cc2c(NCc3c(C)cc(C)[nH]c3=O)nccc12)C1CCC(N(C)C)CC1 (centres unmarked) [Compound Z-177]"
  pIC50: 7.51
- Compound: "CCN(c1cc(Cl)cc2c(NCc3c(OC)cc(C)[nH]c3=O)nccc12)C1CCC(N(C)C)CC1 (centres unmarked) [Compound Z-197]"
  pIC50: 7.29
- Compound: "CCN(c1cc(-c2cnc(CN3CCOCC3)c(F)c2)cc2c(NCc3c(C)cc(C)[nH]c3=O)nccc12)C1CCOCC1 [Compound Z-122]"
  pIC50: 6.36

1. CCN(c1cc(-c2ccc(CN3CCNCC3)cc2)cc2c(NCc3c(C)cc(C)[nH]c3=O)nccc12)C1CCOCC1 [Compound Z-8]
2. CCN(c1cc(-c2cccnc2)cc2c(NCc3c(C)cc(C)[nH]c3=O)nccc12)C1CCC(O)CC1 (centres unmarked) [Compound Z-85]
Recorded pIC50 values differ for 1 and 2 ; which one is higher? Label of pick, please. 1
(1: 7.07, 2: 6.57)

I. CCN(c1cc(C(N)=O)cc2c(NCc3c(C)cc(C)[nH]c3=O)nccc12)C1CCOCC1 [Compound Z-18]
II. CCN(c1cc(-c2ccc(CN3CCOCC3)cc2)cc2c(NCc3c(C)cc(C)[nH]c3=O)nccc12)C1CCC(NC(C)=O)CC1 (centres unmarked) [Compound Z-33]
Recorded pIC50 values differ for I and II ; which one is higher? Label of pick, please. II

P. CCN(c1cc(-c2ccc(CN3CCCCC3)cc2)cc2c(NCc3c(C)cc(C)[nH]c3=O)nccc12)C1CCOCC1 [Compound Z-23]
Q. CCN(c1cc(C(=O)N2CCOCC2)cc2c(NCc3c(C)cc(C)[nH]c3=O)nccc12)C1CCOCC1 [Compound Z-167]
// which entry reports the smaller pIC50, P or Q ? Label of pick, please. Q

a. CCN(c1cc(-c2ccc(N3CCOCC3)nc2)cc2c(NCc3c(C)cc(C)[nH]c3=O)nccc12)C1CCN(C(C)=O)CC1 [Compound Z-59]
b. CCN(CC)Cc1ccc(-c2cc(N(CC)C3CCOCC3)c3ccnc(NCc4c(C)cc(C)[nH]c4=O)c3c2)cc1 [Compound Z-27]
Recorded pIC50 values differ for a and b ; which one is higher? Label of pick, please. b
(b: 7.02, a: 6.56)

====

- Test system: Pfeiffer cells
- Procedure Summary: Cell proliferation test (cell counting kit-8, 6 days)
- Format: cell-based
- Assay Context: Homo sapiens, Pfeiffer, 144 h, 6 days' growth
Measure Name: IC50 (nM)
Kindly provide the numeric value in nM only, without the unit symbol.

- Compound: "CCN(c1cc(-c2cnc(CN3CCN(C)CC3)nc2)cc2c(NCc3c(C)cc(C)[nH]c3=O)nccc12)C1CCOCC1 [Compound Z-115]"
  IC50, nM: 706
- Compound: "CCN(c1cc(-c2ccc(N3CCOCC3)nc2)cc2c(NCc3c(C)cc(C)[nH]c3=O)nccc12)C1CCC(N(C)C)CC1 (stereo not shown) [Compound Z-39]"
  IC50, nM: 507
- Compound: "CCN(c1cc(N(C)c2cccnc2)cc2c(NCc3c(C)cc(C)[nH]c3=O)nccc12)[C@H]1CC[C@H](N(C)C)CC1 [Compound Z-183]"
  IC50, nM: 395
- Compound: "CCN(c1cc(-c2ccc(N3CCN(C)CC3)nc2)cc2c(NCc3c(OC)cc(C)[nH]c3=O)nccc12)C1CCC(N(C)C)CC1 (stereo not shown) [Compound Z-193]"
  IC50, nM: 620
- Compound: "CCN(c1cc(-c2ccccn2)cc2c(NCc3c(C)cc(C)[nH]c3=O)nccc12)C1CCN(C(C)C)CC1 [Compound Z-126]"
  IC50, nM: 765

Retrieve IC50 measured for CCN(c1cc(Cl)cc2c(NCc3c(C)cc(C)[nH]c3=O)nccc12)C1CC2CCC(C1)N2 (stereo not shown) [Compound Z-209] and print it. 250

Retrieve IC50 measured for CCN(c1cc(-c2cccnc2)cc2c(NCc3c(C)cc(C)[nH]c3=O)nccc12)C1CCC(O)CC1 (stereo not shown) [Compound Z-85] and print it. 521

====

- Tested on: Pfeiffer cells
- Procedure Summary: Cell proliferation test (cell counting kit-8, 6 days)
- Format: cell-based
- Assay Context: Homo sapiens, Pfeiffer, 144 h, 6 days' growth
Items are presented alongside their recorded IC50.
Kindly provide the numeric value in nM only, without the unit symbol.

See these solved cases before continuing.
- Compound: "CCN(c1cc(-c2cnc(N3CCOCC3)nc2)cc2c(NCc3c(OC)cc(C)[nH]c3=O)nccc12)C1CCC(N(C)C)CC1 (stereo not drawn)"
  Unit Text: "nM"
  IC50: 393
- Compound: "CCN(c1cc(-c2ccc(C3CCN(C)CC3)nc2)cc2c(NCc3c(C)cc(C)[nH]c3=O)nccc12)[C@H]1CC[C@H](N(C)C)CC1"
  Unit Text: "nM"
  IC50: 768
- Compound: "CCN(c1cc(-c2ccc(N3CCOCC3)nc2)cc2c(NCc3c(C)cc(C)[nH]c3=O)nccc12)C1CCN(C(C)C)CC1"
  Unit Text: "nM"
  IC50: 766
- Compound: "CCN(c1cc(-c2ccc(CN3CCN(C(C)C)CC3)nc2)cc2c(NCc3c(C)cc(C)[nH]c3=O)nccc12)C1CCOCC1"
  Unit Text: "nM"
  IC50: 595
- Compound: "CCN(c1cc(-c2ccc(CN3CCN(C)CC3)nc2)cc2c(NCc3c(C)cc(C)[nH]c3=O)nccc12)C1CCC(O)CC1 (stereo not drawn)"
  Unit Text: "nM"
  IC50: 583

Let us move to another entry and its IC50.
Please report the measured IC50 for CCN(c1cc(N(C)c2cccnc2)cc2c(NCc3c(C)cc(C)[nH]c3=O)nccc12)C1CCC(N(C)C)CC1 (stereo not drawn) tested on Pfeiffer cells. 251

====

- System Name: Recombinant PRC2 (EZH2-Y641F) (Homo sapiens, UniProt Q15910, Y641F)
- Procedure Summary: In vitro methyltransferase activity test (LANCE Ultra);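 also: compounds tested as an 8-point threefold dilution series, fluorescence read after 1 h detection step at room temperature, IC50 derived from a four-parameter curve fit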
- Assay Context: EZH2 Y641F IC50, Recombinant PRC2 (EZH2-Y641F), LANCE Ultra detection, 3 hours reaction
pIC50: −log10 of the molar value.
Measure Name: pIC50

- Molecule: "CCN(c1cc(C#N)cc2c(NCc3c(C)cc(C)[nH]c3=O)nccc12)C1CCOCC1"
  System Name: "Recombinant PRC2 (EZH2-Y641F) (Homo sapiens, UniProt Q15910, Y641F)"
  pIC50: 6.21
- Molecule: "CCN(c1cc(-c2ccc(N3CCN(C)CC3)nc2)cc2c(NCc3c(C)n(C)[nH]c3=O)nccc12)C1CCC(N(C)C)CC1 (centres unmarked)"
  System Name: "Recombinant PRC2 (EZH2-Y641F) (Homo sapiens, UniProt Q15910, Y641F)"
  pIC50: 6.44

A. CCN(c1cc(-c2ccc(CN3CCCCC3)cc2)cc2c(NCc3c(C)cc(C)[nH]c3=O)nccc12)C1CCC(N(C)C)CC1 (centres unmarked)
B. CCN(c1cc(-c2ccc(N3CCN(C)CC3)nc2)cc2c(NCc3c(C)cc(C)[nH]c3=O)nccc12)C1CCC(NC(C)=O)CC1 (centres unmarked)
C. CCN(c1cc(-c2ccc(NC3CCOCC3)cc2)cc2c(NCc3c(C)cc(C)[nH]c3=O)nccc12)C1CCOCC1
Number of molecules to sort: 3. Sort criterion: pIC50, ascending. Please express your ranking as an ordered list of the labels. C, B, A

I. CCN(c1c(F)c(-c2ccc(N3CCN(C)CC3)nc2)cc2c(NCc3c(C)cc(C)[nH]c3=O)nccc12)C1CCC(N(C)C)CC1 (centres unmarked)
II. CCN(c1cc(C(C)C)cc2c(NCc3c(C)cc(C)[nH]c3=O)nccc12)C1CCNCC1
// which entry reports the smaller pIC50, I or II ? Label of pick, please. II
(II: 6.89, I: 7.55)

1. CCN(c1cc(-c2cncc(C(F)(F)F)c2)cc2c(NCc3c(C)cc(C)[nH]c3=O)nccc12)[C@H]1CC[C@H](N(C)C)CC1
2. CCN(c1cc(-c2ccc(CN3CCNCC3)nc2)cc2c(NCc3c(C)cc(C)[nH]c3=O)nccc12)C1CCOCC1
3. CCN(c1cc(Cl)cc2c(NCc3c(C)cc(C)[nH]c3=O)nccc12)C1CCOCC1
4. CCN(c1cc(-c2cnn(C3CCN(C)CC3)c2)cc2c(NCc3c(C)cc(C)[nH]c3=O)nccc12)C1CCC(N(C)C)CC1 (centres unmarked)
Order the 4 molecules from highest to lowest pIC50. Please express your ranking as an ordered list of the labels. 4, 2, 1, 3
(4: 7.35, 2: 7.02, 1: 6.75, 3: 6.53)
